Data origin, for the record: ChEMBL document CHEMBL1629622

- Tested on: Enterococcus faecalis
- measurement-notes: Antimicrobial activity against Enterococcus faecalis NKH7 harboring pMG2200-like plasmid after 24 hrs by agar dilution method
- Format: functional
- measurement-parameters: NKH7, 24 h
Below, each entry is listed alongside its reported MIC.
Answer format: numeric, µg/mL implied, no suffix.

Example cases with answers are listed next.
O=C(N[C@H](CO)[C@H](O)c1ccc([N+](=O)[O-])cc1)C(Cl)Cl: 4
CN(C)[C@@H]1C(O)=C(C(N)=O)C(=O)[C@@]2(O)C(O)=C3C(=O)c4c(O)cccc4[C@@](C)(O)[C@H]3C[C@@H]12: 64
CC[C@H]1OC(=O)[C@H](C)[C@@H](O[C@H]2C[C@@](C)(OC)[C@@H](O)[C@H](C)O2)[C@H](C)[C@@H](O[C@@H]2O[C@H](C)C[C@H](N(C)C)[C@H]2O)[C@](C)(O)C[C@@H](C)C(=O)[C@H](C)[C@@H](O)[C@]1(C)O: 0.125
CN[C@@H]1[C@H](O[C@H]2[C@H](O[C@H]3[C@H](O)[C@@H](O)[C@H](N=C(N)N)[C@@H](O)[C@@H]3N=C(N)N)O[C@@H](C)[C@]2(O)C=O)O[C@@H](CO)[C@H](O)[C@H]1O: 32

Then this compound:
So what does the record say about MIC for "O=C(O)c1cn(C2CC2)c2cc(N3CCNCC3)c(F)cc2c1=O" ?
64

---

- Tested on: Enterococcus faecalis
- measurement-notes: Antimicrobial activity against Enterococcus faecalis NKH12 harboring pMG2200-like and pMG2201-like plasmids after 24 hrs by agar dilution method
- Format: functional
- measurement-parameters: NKH12, 24 h
metric-name: log10 MIC (log10 of the value in µg/mL)
Scale: decimal log of MIC, MIC in µg/mL.

Example cases with answers are listed next.
CN[C@@H]1[C@H](O[C@H]2[C@H](O[C@H]3[C@H](O)[C@@H](O)[C@H](N=C(N)N)[C@@H](O)[C@@H]3N=C(N)N)O[C@@H](C)[C@]2(O)C=O)O[C@@H](CO)[C@H](O)[C@H]1O: 1.51
O=C(O)c1cn(C2CC2)c2cc(N3CCNCC3)c(F)cc2c1=O: 1.81
CN(C)[C@@H]1C(O)=C(C(N)=O)C(=O)[C@@]2(O)C(O)=C3C(=O)c4c(O)cccc4[C@@](C)(O)[C@H]3C[C@@H]12: 1.81
O=C(N[C@H](CO)[C@H](O)c1ccc([N+](=O)[O-])cc1)C(Cl)Cl: 0.90
CN[C@H](CC(C)C)C(=O)N[C@H]1C(=O)N[C@@H](CC(N)=O)C(=O)N[C@H]2C(=O)N[C@H]3C(=O)N[C@H](C(=O)N[C@H](C(=O)O)c4cc(O)cc(O)c4-c4cc3ccc4O)[C@H](O)c3ccc(c(Cl)c3)Oc3cc2cc(c3O[C@@H]2O[C@H](CO)[C@@H](O)[C@H](O)[C@H]2O[C@H]2C[C@](C)(N)[C@H](O)[C@H](C)O2)Oc2ccc(cc2Cl)[C@H]1O: 2.41

So what does the record say about log10 MIC for "CC1(C)S[C@@H]2[C@H](NC(=O)[C@H](N)c3ccccc3)C(=O)N2[C@H]1C(=O)O" ?
0.60

---

- System: Enterococcus faecalis
- measurement-notes: Antimicrobial activity against Enterococcus faecalis NKH16 harboring pMG2200-like plasmid after 24 hrs by agar dilution method
- Format: functional
- measurement-parameters: NKH16, 24 h
Below, each entry is listed alongside its reported MIC.
Answer format: numeric, µg/mL implied, no suffix.

CN[C@@H]1[C@H](O[C@H]2[C@H](O[C@H]3[C@H](O)[C@@H](O)[C@H](N=C(N)N)[C@@H](O)[C@@H]3N=C(N)N)O[C@@H](C)[C@]2(O)C=O)O[C@@H](CO)[C@H](O)[C@H]1O: 32
O=C(O)c1cn(C2CC2)c2cc(N3CCNCC3)c(F)cc2c1=O: 64
CN(C)[C@@H]1C(O)=C(C(N)=O)C(=O)[C@@]2(O)C(O)=C3C(=O)c4c(O)cccc4[C@@](C)(O)[C@H]3C[C@@H]12: 32
CC[C@H]1OC(=O)[C@H](C)[C@@H](O[C@H]2C[C@@](C)(OC)[C@@H](O)[C@H](C)O2)[C@H](C)[C@@H](O[C@@H]2O[C@H](C)C[C@H](N(C)C)[C@H]2O)[C@](C)(O)C[C@@H](C)C(=O)[C@H](C)[C@@H](O)[C@]1(C)O: 0.125

Then this molecule:
So what does the record say about MIC for "O=C(N[C@H](CO)[C@H](O)c1ccc([N+](=O)[O-])cc1)C(Cl)Cl" ?
4

---

- Test system: Enterococcus faecalis
- measurement-notes: Antimicrobial activity against Enterococcus faecalis NKH17 harboring pMG2200-like plasmid after 24 hrs by agar dilution method
- Format: functional
- measurement-parameters: NKH17, 24 h
metric-name: MIC

Example cases with answers are listed next.
CC[C@H]1OC(=O)[C@H](C)[C@@H](O[C@H]2C[C@@](C)(OC)[C@@H](O)[C@H](C)O2)[C@H](C)[C@@H](O[C@@H]2O[C@H](C)C[C@H](N(C)C)[C@H]2O)[C@](C)(O)C[C@@H](C)C(=O)[C@H](C)[C@@H](O)[C@]1(C)O: 0.125 µg/mL
O=C(O)c1cn(C2CC2)c2cc(N3CCNCC3)c(F)cc2c1=O: 64 µg/mL
CN[C@H](CC(C)C)C(=O)N[C@H]1C(=O)N[C@@H](CC(N)=O)C(=O)N[C@H]2C(=O)N[C@H]3C(=O)N[C@H](C(=O)N[C@H](C(=O)O)c4cc(O)cc(O)c4-c4cc3ccc4O)[C@H](O)c3ccc(c(Cl)c3)Oc3cc2cc(c3O[C@@H]2O[C@H](CO)[C@@H](O)[C@H](O)[C@H]2O[C@H]2C[C@](C)(N)[C@H](O)[C@H](C)O2)Oc2ccc(cc2Cl)[C@H]1O: 32 µg/mL
CN(C)[C@@H]1C(O)=C(C(N)=O)C(=O)[C@@]2(O)C(O)=C3C(=O)c4c(O)cccc4[C@@](C)(O)[C@H]3C[C@@H]12: 32 µg/mL
O=C(N[C@H](CO)[C@H](O)c1ccc([N+](=O)[O-])cc1)C(Cl)Cl: 4 µg/mL

So what does the record say about MIC for "NC[C@H]1O[C@H](O[C@H]2[C@H](O)[C@@H](O[C@H]3O[C@H](CO)[C@@H](O)[C@H](N)[C@H]3O)[C@H](N)C[C@@H]2N)[C@H](O)[C@@H](O)[C@@H]1O" ?
> 1020 µg/mL

So what does the record say about MIC for "CN[C@@H]1[C@H](O[C@H]2[C@H](O[C@H]3[C@H](O)[C@@H](O)[C@H](N=C(N)N)[C@@H](O)[C@@H]3N=C(N)N)O[C@@H](C)[C@]2(O)C=O)O[C@@H](CO)[C@H](O)[C@H]1O" ?
32 µg/mL

---

- Test system: Enterococcus faecalis
- measurement-notes: Antimicrobial activity against Enterococcus faecalis NKH15 harboring pMG2200-like and pMG2201-like plasmids after 24 hrs by agar dilution method
- Type: functional
- measurement-parameters: NKH15, 24 h
metric-name: MIC

Example cases with answers are listed next.
O=C(N[C@H](CO)[C@H](O)c1ccc([N+](=O)[O-])cc1)C(Cl)Cl [CHLORAMPHENICOL]: 8 mg/L
CN(C)[C@@H]1C(O)=C(C(N)=O)C(=O)[C@@]2(O)C(O)=C3C(=O)c4c(O)cccc4[C@@](C)(O)[C@H]3C[C@@H]12 [TETRACYCLINE]: 32 mg/L
CC[C@H]1OC(=O)[C@H](C)[C@@H](O[C@H]2C[C@@](C)(OC)[C@@H](O)[C@H](C)O2)[C@H](C)[C@@H](O[C@@H]2O[C@H](C)C[C@H](N(C)C)[C@H]2O)[C@](C)(O)C[C@@H](C)C(=O)[C@H](C)[C@@H](O)[C@]1(C)O [ERYTHROMYCIN]: > 1020 mg/L

So what does the record say about MIC for O=C(O)c1cn(C2CC2)c2cc(N3CCNCC3)c(F)cc2c1=O [CIPROFLOXACIN] ?
64 mg/L

So what does the record say about MIC for CC1(C)S[C@@H]2[C@H](NC(=O)[C@H](N)c3ccccc3)C(=O)N2[C@H]1C(=O)O [AMPICILLIN] ?
4 mg/L

So what does the record say about MIC for CN[C@@H]1[C@H](O[C@H]2[C@H](O[C@H]3[C@H](O)[C@@H](O)[C@H](N=C(N)N)[C@@H](O)[C@@H]3N=C(N)N)O[C@@H](C)[C@]2(O)C=O)O[C@@H](CO)[C@H](O)[C@H]1O [STREPTOMYCIN] ?
32 mg/L

So what does the record say about MIC for NC[C@H]1O[C@H](O[C@H]2[C@H](O)[C@@H](O[C@H]3O[C@H](CO)[C@@H](O)[C@H](N)[C@H]3O)[C@H](N)C[C@@H]2N)[C@H](O)[C@@H](O)[C@@H]1O [KANAMYCIN] ?
> 1020 mg/L
